Ref: the supplement of paper PMC11865577

# Tested on: TO-3-N3-2 (biotin conjugate)
# ASSAY_PROCEDURE: pull-down binding Z-score (relative to library population); higher = stronger binding
# CONDITION_DESCRIPTION: RNA library: Library-2
PARAMETER_MEASURED: pull-down binding Z-score

1. GCUCUGGGGAUUUGGUCUCACAGC [hsa-mir-3940]: -0.38
2. CACAGAGUAAGCAUCAAUAGCAUUGGCAAGUUGAACUGAGCUGUC [hsa-mir-6895]: -0.0293
3. UUGGUCUUUCCCCUGUGGUCCCAA [hsa-mir-2909]: 0.152
4. UCAGCCCCAUAUGUAUCUGAAGGCUGA [hsa-mir-5694]: -0.286
5. GGCAUCAGAGGACAGCCGCCUGGUGCC [hsa-mir-4641]: -0.0706
6. AUGGAGAACGCCCCCACCAGUUCCCAC [hsa-mir-6767]: 0.564
7. CCUGCAGCCCCCAGGUGGGGGG [hsa-mir-4271]: -0.105
8. CCCGAGCUGGGCAGCAUGAAGGGCCUCGGG [hsa-mir-486-2]: 0.949
9. GGCGUUGUCCUGCUGAAAUUGUUGACACUGUGAGUGCUUUGGUUUAUGAUAAUAAGCUUAAAGCACAUAAAGACAAAUCAGCUCAAUGCU: -0.302
10. CGUGCGCCAGUGGAG [hsa-mir-6089-2_6089-1]: -0.139
11. CAGUGUUAGCUCCAGAAGCAUUG [hsa-mir-3170]: -0.107
12. GCGCGGCCAGAAACUGGCUGCGC [mismatch-GU]: 0.0256
13. UCCUGUAGUGUCUUAUAUACAAUACAGUAGGA [hsa-mir-613]: -0.802
14. CAUGUGAUCUGCACCUCUGAAGACAUG: 0.185
15. CCACGCCAGGUAGUGG: 0.0319
16. AUAAACCACCCAUUAGUUUUCCAUUGUGUGCUAAUGGACAAGUUUUUGGUUUAU: -0.594
17. UUGGCACAGGGAAGCGAGUCUGCCAA [hsa-mir-195]: 0.354
18. AACAGCAGGAUUGGCUGUAGCUGUU [hsa-mir-2117]: -0.324
19. ACUUUUUUUUUUUUUUUUUUUAAUGUUAAAAGU [hsa-mir-5588]: 0.823
20. GUAGAUUUUAUGUCAC [hsa-mir-892b]: -0.156
21. GGGGCUGGUUGUCUA [hsa-mir-6080]: -0.165
22. CGUAGGCGUUAUGAUUUCUGACCUAUG [hsa-mir-379]: -0.261
23. CAGACAACACAUUUGUGUCUG: -0.67
24. GACGGCGCCCGCCCUGGCCCUGGC [hsa-mir-4745]: 0.0825
25. GUGAGAGAGAGCCGGAACCCAGGGAAUGCUGAGUUCGAAGAUCUCAC [IAV_invivo_NP_5_Motif_14+IAV_invivo_NP_5_Motif_14]: 0.125
26. GUUUUUUAAGAGGAAGGGAGACCUAAGCUAGCA [hsa-mir-4481]: 0.475
27. UGUGCCUGCCUUCGAAGUGCACGGCAGG [hsa-mir-4297]: 0.00697
28. GCUUUUCACCUGUGAUCCCAGGAGAGGAAGC [hsa-mir-646]: -0.0622
29. UCCAUGAAAAGAACCCAUGGG [hsa-mir-4471]: 0.0519
30. UGGAGGGGGUUUGUUUGCUUAUUCCCCUCU [hsa-mir-6737]: 0.705
31. CUGUGGCCGGUCCCAG [hsa-mir-4656]: -0.0683
32. CAACUUACAAAUUAAAUGUUG: -0.152
33. CAGUACAAUUCUGUGAUGCCAUGCGAAAUGCUGGUAUUGUUGGUGUACUG: -0.441
34. UGGGUUACAUCCUACACAGGCACCUACACACCUCAGUGUUGACACUAAAUUCAAAACUGAAGGUUUAUGUGUUGACAUACCUGGCAUACCUAAGGACAUGACCUA: -0.293
35. UUUGCCAAUAAAAGUAAUGACAAA [hsa-mir-548ah]: 0.181
36. AGCUGGGGCCGGGU [hsa-mir-4281]: 0.821

###

# Test system: TO-N3-2 (biotin conjugate)
# ASSAY_PROCEDURE: pull-down binding Z-score (relative to library population); higher = stronger binding
# CONDITION_DESCRIPTION: RNA library: Library-2
Below: a set of entries, each annotated with reported pull-down binding Z-score.
PARAMETER_MEASURED: pull-down binding Z-score

1) CAACUACUCAGGAGGCUG [hsa-mir-566]: 0.304
2) GUACAUGGGCACACUUUCUUAUGAACAAUUUAAGAAAGGUGUUCAGAUACCUUGUAC [SHAPE_invitro_SARS-CoV-2_Motif_110]: -1.11
3) CCCAUAUGGACCUGCUAAGCUAUGGA [hsa-mir-1-1]: 0.361
4) UUUGUGGAUUUUGAAAAGGUGCAGG [hsa-mir-15a]: 0.28
5) CUGAGGAAUUUGCUGGGAUAUGUCAG [hsa-mir-584]: 0.799
6) GGUUUCGGGCUGCC [hsa-mir-661]: 0.74
7) UUUGCCGUUGCUUUUAAUGGUAAA [hsa-mir-548as]: -1.31
8) ACUGAACCAGCUUCAAACAAGUUCACU [hsa-mir-653]: -0.00579
9) AUGCAUGGCUGGUGGCGGCGUGCAG [hsa-mir-6722]: 2.13
10) GGUACAUUUACUUGUGCU [SHAPE_invivo_SARS-CoV-2_Motif_118]: -0.222
11) GCGCUGCCAGAAACUGGCGAGCGC [bulge-G]: -0.578
12) GUUCUCUAAACGAAC: -1.16
13) GAUGGAGGAAUCACAUGAAUUCAUC [hsa-mir-2115]: -0.351
14) UCCUGAGCUAGGAGGAUUAGGA [hsa-mir-5093]: 0.417
15) GGGGAUGGACUGGAAGUGGGCAGCAUGGAGCUGACCUUCAUCAUGGCUUGGCCAACAUAAUGCCUC [hsa-mir-1236]: 1.38
16) AAUCCCUCUCUUUCUAGUUCUUCCUAGAGUGAGGAAAA [hsa-mir-320b-1]: -0.55
17) CAUUCACAUAGACUAUAAUUGAAUG [hsa-mir-652]: -0.703
18) GGAGACCCUAUACAUACCUGUUUCC [hsa-mir-5581]: -0.354
19) GGGAAUAUAAUCUC [IAV_invivo_NA_6_Motif_2+IAV_invivo_NA_6_Motif_2]: -0.715
20) AGUCCAAAGGAAAGGGCU [hsa-mir-8077]: -0.0277
21) AAAUUCUUGGAACUGUUUCUUGGAAUUU: -1.37
22) AAAAUUACUUUUGGUAAAUACAGUUUU [hsa-mir-559]: -1.04
23) ACAUUAGAUAAUCAAGAUCUCAAUGGUAACUGGUAUGAUUUCGGUGAUUUCAUACAAACCACGCCAGGUAGUGGAGUUCCUGUUGUAGAUUCUUAUUAUUCAUUGU: 0.46
24) UUGAGGAGAGCACCACAGUGGUCAUCACACAG [hsa-mir-622]: 1.19
25) CUGCAGGGACUGUGACACUGAA [hsa-mir-6816]: 1.22
26) GGCAUCUAGGCUGUGCACAGUGACGCC [hsa-mir-4749]: 0.336
27) GGGGGUGGCCGGGGCUGACCCU [hsa-mir-939]: 2.08

###

# Test system: TO-3-N3 (biotin conjugate)
# ASSAY_PROCEDURE: pull-down binding Z-score (relative to library population); higher = stronger binding
# CONDITION_DESCRIPTION: RNA library: Library-2
PARAMETER_MEASURED: pull-down binding Z-score

1. GCCGGAUCAGACCGAGUGAUGGUAUCACCACUGGC [IAV_invivo_PB2_1_Motif_5+IAV_invivo_PB2_1_Motif_5]: -0.361
2. UAGAUGAAUAAAUGAAUGACUCAUCA [hsa-mir-545]: -0.346
3. CGUGCUCAGCUUGGCACCCAAGUUCUGC [hsa-mir-7704]: -0.129
4. UUGGUCUUUCCCCUGUGGUCCCAA [hsa-mir-2909]: -0.158
5. CUCAGCAUGUUGAGCCCUGUCUCUGGGGAGCUGAC [hsa-mir-6505]: 0.254
6. AGAUCCUGUCUUUCGUAAUCAGCAGCU [hsa-mir-222]: 0.279
7. GUUUGUGUAUCUACUAGUGGUAGAUGGGUACUUAAC: -0.677
8. UCUUAGACUAUUACAAGA [hsa-mir-3672]: 0.922
9. UUUUAUCAUUACUUUUAAUGGCAAAA [hsa-mir-548f-2]: 1.12
10. UUUCUGUUGUCUGAAAGAAGAGAAA [hsa-mir-526b_518a-1]: -0.47
11. UUUGCCUAUAAAAGUAAUGGCAAA [hsa-mir-548an]: -0.247
12. CUCAUUGUUGAAUGGAAUGAGAU [hsa-mir-3145]: -0.527
13. ACCUCCUGGCUUUUCCUCUGCAGCAUGGCUCGGACCUAGUGCAAUGUUUAAGCU [hsa-mir-6826]: 0.104
14. CACUACAAGAAGAAUGUAGUUGUG [hsa-mir-19a]: -0.108
15. UGAGUGGCAUAAUCAGAGUACAAUUUGAGUCAUGCCCAUACAUCA [hsa-mir-23c]: -0.338
16. GUCCUAUUACGGAU: -0.9
17. UGCAGUUCUGUUGGGUGACAGCA [hsa-mir-6499]: 0.239
18. CCAUGGCAGAUUCCAACGGUACUAUUACCGUUGAAGAGCUUAAAAAGCUCCUUGAACAAUGGAACCUAGUAAUAGGUUUCCUAUUCCUUACAUGG [DMSMaPseq_invitro_SARS-CoV-2_Multi_81_ComplexLevel_1]: -0.195
19. CUGUUGAAAGAAAAG [hsa-mir-526a-2]: 0.496
